Source of measurements: paper PMC3596460

molecular target: UniProt P23975; test: Competitive inhibition of [^3H]mazindol binding to C6-hNET cell membranes
pKi: −log10 of the molar value.
MEASUREMENT LABEL: pKi

[
  {
    "COMPOUND": "CNC[C@H](O)c1ccc(O)c(O)c1 [EPI, [^11C]-(−)-epinephrine]",
    "MEASUREMENT LABEL": "pKi",
    "RECORDED VALUE": 4.16
  }
]

---

molecular target: human norepinephrine transporter (hNET) (Homo sapiens); test: Saturation transport kinetics assays with intact C6-hNET cells; assay type: cell-based; details: intact C6-hNET cells, 5 min, 37 °C; mean ± SD, n = 4 or 5
Sequence (P23975 whole entry): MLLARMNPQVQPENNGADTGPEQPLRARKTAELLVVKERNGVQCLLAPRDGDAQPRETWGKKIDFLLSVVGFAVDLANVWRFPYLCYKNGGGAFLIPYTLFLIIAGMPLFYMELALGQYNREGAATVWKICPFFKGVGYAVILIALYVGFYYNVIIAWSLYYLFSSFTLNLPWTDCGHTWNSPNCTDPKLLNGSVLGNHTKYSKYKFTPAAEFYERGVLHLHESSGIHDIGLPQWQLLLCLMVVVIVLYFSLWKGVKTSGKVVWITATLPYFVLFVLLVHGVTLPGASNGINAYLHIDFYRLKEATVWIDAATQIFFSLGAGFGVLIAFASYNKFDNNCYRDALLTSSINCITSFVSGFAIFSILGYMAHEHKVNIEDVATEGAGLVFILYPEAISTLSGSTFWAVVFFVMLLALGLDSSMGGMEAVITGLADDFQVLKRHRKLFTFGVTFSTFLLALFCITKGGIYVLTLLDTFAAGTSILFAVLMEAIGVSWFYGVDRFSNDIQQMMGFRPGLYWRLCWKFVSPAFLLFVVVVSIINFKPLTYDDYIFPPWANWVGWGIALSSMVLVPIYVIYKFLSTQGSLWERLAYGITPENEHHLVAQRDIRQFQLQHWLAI
MEASUREMENT LABEL: Km (µM)

[
  {
    "COMPOUND": "N=C(N)NCCc1cccc(O)c1 [MHPG, [^11C]meta-hydroxyphenethylguanidine]",
    "UNIT TAG": "µM",
    "RECORDED VALUE": 0.73
  },
  {
    "COMPOUND": "N=C(N)NCCc1cc(O)ccc1F",
    "UNIT TAG": "µM",
    "RECORDED VALUE": 2.86
  },
  {
    "COMPOUND": "N=C(N)NCCc1ccc(F)c(O)c1",
    "UNIT TAG": "µM",
    "RECORDED VALUE": 2.57
  },
  {
    "COMPOUND": "N=C(N)NCC(O)c1cccc(O)c1 (single isomer, unassigned; (-)) [GMO, (−)-N-[^11C]guanyl-meta-octopamine]",
    "UNIT TAG": "µM",
    "RECORDED VALUE": 4.43
  },
  {
    "COMPOUND": "N=C(N)NCCc1ccc(O)cc1 [PHPG, [^11C]para-hydroxyphenethylguanidine]",
    "UNIT TAG": "µM",
    "RECORDED VALUE": 0.52
  }
]

---

target: human norepinephrine transporter (hNET) (Homo sapiens); assay: Competitive inhibition of [^3H]mazindol binding to C6-hNET cell membranes; settings: [^3H]mazindol, homogenized C6-hNET cell membranes; Cheng-Prusoff; mean ± SD, n = 4 or 5
pKi: −log10 of the molar value.
MEASUREMENT LABEL: pKi

[
  {
    "COMPOUND": "N=C(N)NCCc1cc(O)ccc1F",
    "MEASUREMENT LABEL": "pKi",
    "RECORDED VALUE": 4.75
  },
  {
    "COMPOUND": "N=C(N)NCCc1ccc(O)cc1 [PHPG, [^11C]para-hydroxyphenethylguanidine]",
    "MEASUREMENT LABEL": "pKi",
    "RECORDED VALUE": 5.72
  },
  {
    "COMPOUND": "N=C(N)NCCc1ccc(F)c(O)c1",
    "MEASUREMENT LABEL": "pKi",
    "RECORDED VALUE": 5.25
  },
  {
    "COMPOUND": "N=C(N)NCCc1cccc(O)c1 [MHPG, [^11C]meta-hydroxyphenethylguanidine]",
    "MEASUREMENT LABEL": "pKi",
    "RECORDED VALUE": 5.31
  },
  {
    "COMPOUND": "N=C(N)NCC(O)c1cccc(O)c1 (single isomer, unassigned; (-)) [GMO, (−)-N-[^11C]guanyl-meta-octopamine]",
    "MEASUREMENT LABEL": "pKi",
    "RECORDED VALUE": 4.69
  }
]
